The measured values listed here are drawn from patent US8962641B2.

# experimental.system: human ACC2 (Homo sapiens (Human), UniProt O00763)
# Sequence (O00763 129-2458): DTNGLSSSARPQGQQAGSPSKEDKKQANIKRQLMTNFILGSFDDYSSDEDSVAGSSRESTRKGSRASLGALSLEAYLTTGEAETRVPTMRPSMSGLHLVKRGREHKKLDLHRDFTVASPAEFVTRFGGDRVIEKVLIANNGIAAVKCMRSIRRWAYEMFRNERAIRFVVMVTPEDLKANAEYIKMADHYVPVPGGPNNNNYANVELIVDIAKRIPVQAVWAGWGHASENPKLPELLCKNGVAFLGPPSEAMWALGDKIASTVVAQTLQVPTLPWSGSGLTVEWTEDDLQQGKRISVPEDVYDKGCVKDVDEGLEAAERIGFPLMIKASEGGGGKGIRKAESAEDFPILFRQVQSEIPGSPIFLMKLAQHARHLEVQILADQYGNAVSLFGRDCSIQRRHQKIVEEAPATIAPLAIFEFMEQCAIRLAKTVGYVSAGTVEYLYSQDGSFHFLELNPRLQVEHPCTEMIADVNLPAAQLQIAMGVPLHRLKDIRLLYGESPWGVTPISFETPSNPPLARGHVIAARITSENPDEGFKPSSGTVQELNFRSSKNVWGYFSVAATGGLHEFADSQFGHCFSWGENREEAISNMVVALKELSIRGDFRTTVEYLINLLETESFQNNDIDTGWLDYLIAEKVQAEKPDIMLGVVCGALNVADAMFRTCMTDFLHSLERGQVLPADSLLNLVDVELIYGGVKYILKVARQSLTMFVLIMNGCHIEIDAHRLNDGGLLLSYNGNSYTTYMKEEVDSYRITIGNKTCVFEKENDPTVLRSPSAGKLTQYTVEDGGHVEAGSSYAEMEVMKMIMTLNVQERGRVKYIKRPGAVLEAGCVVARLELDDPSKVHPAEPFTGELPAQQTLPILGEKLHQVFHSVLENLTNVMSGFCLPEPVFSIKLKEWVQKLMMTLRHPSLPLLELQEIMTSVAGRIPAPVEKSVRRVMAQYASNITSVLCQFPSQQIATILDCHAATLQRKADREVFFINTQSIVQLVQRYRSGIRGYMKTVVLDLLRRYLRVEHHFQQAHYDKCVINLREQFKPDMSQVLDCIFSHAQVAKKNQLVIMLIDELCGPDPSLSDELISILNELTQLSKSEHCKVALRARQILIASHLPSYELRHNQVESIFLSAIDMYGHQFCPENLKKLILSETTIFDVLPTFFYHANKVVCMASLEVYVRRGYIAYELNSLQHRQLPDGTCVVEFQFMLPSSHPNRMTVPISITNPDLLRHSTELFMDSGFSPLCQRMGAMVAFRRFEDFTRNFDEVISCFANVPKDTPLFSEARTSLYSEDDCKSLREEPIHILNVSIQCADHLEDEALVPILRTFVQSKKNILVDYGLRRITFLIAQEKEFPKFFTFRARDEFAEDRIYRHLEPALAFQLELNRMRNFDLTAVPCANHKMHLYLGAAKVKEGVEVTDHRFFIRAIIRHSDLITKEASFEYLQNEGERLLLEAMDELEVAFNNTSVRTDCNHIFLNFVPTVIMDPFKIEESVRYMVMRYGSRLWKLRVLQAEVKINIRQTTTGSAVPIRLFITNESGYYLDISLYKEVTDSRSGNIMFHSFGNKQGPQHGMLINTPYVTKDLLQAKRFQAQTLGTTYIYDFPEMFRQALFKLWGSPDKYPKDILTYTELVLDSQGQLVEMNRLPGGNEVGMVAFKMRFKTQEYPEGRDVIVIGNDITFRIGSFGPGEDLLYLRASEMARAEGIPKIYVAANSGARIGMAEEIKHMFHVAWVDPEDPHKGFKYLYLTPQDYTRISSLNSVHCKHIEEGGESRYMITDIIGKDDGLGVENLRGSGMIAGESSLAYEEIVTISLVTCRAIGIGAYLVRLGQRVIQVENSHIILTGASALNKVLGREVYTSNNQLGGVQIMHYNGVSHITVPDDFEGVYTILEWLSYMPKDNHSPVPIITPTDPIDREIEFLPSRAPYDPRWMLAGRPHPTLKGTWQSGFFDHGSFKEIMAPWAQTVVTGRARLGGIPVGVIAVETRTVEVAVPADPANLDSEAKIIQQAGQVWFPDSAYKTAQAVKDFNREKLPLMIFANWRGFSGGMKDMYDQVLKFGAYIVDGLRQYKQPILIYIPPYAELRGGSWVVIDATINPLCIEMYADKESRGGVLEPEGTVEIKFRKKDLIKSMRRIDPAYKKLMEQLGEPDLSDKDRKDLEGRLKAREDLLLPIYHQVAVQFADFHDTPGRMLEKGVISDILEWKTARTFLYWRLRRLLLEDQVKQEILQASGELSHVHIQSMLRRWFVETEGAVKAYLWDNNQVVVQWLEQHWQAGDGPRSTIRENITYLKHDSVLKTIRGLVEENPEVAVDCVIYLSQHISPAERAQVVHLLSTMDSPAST
# experiment.description: ACC2 assay (spectrophotometric 384 well assay, NADH-linked kinetic method)
# Type: biochemical
# test.settings: hACC2 construct lacking 128 N-terminal amino acids; coupled lactate dehydrogenase/pyruvate kinase reaction, 340 nm, 25° C.
pIC50: −log10 of the molar value.
measurement.type: pIC50

I. COc1c(OCC(C)(F)F)ncnc1N1CC[C@@H](Oc2ccc([C@H](C)NC(C)=O)cc2)C1
II. CCNC(=O)N[C@@H](C)c1ccc(O[C@@H]2CCN(c3nc(N4CCC5(CC5)C4)ncc3F)C2)cc1
Please compare: I and II . Report which one has the smaller pIC50 value. To answer, give the label that identifies your chosen option.
II

----------
# experimental.system: human ACC2 (Homo sapiens (Human))
# experiment.description: ACC2 assay (spectrophotometric 384 well assay, NADH-linked kinetic method)
# Type: biochemical
# test.settings: hACC2 construct lacking 128 N-terminal amino acids; coupled lactate dehydrogenase/pyruvate kinase reaction, 340 nm, 25° C.
measurement.type: IC50 (nM)

Here is how some compounds turned out for IC50.
CC(=O)N[C@@H](C)c1ccc(O[C@@H]2CCN(c3nc(N4CCOC(C)C4)ncc3Cl)C2)cc1 (stereo partly drawn) [Example 8.186]	204
CC(=O)N[C@@H](C)c1ccc(O[C@@H]2CCN(c3ncnc(N4CC[C@H](C)C4)c3Cl)C2)cc1 [Example 8.310]	52
COC[C@@H](C)N(C)c1ncc(F)c(N2CC[C@@H](Oc3ccc([C@H](C)NC(C)=O)cc3)C2)n1 [Example 8.150]	159
CC(=O)N[C@@H](C)c1ccc(O[C@@H]2CCN(c3ccnc(N4CCOC(C)(C)C4)n3)C2)cc1 [Example 8.89]	293

a. CCN(CC(F)(F)F)c1nccc(N2CC[C@@H](Oc3ccc([C@H](C)NC(C)=O)cc3)C2)n1 [Example 8.79]
b. CCN(C)c1ncc(Br)c(N2CC[C@@H](Oc3ccc([C@H](C)NC(C)=O)cc3)C2)n1 [Example 8.57]
In terms of reported IC50, does a or b have the smaller number? Please identify the chosen entry by its label.
a
(a: 37 nM, b: 1000 nM)

1. CC(=O)N[C@@H](C)c1ccc(O[C@@H]2CCN(c3ccnc(N4CCC(C)(O)C4)n3)C2)cc1 (stereo partly drawn) [Example 8.214]
2. CCN(CCOC)c1nccc(N2CC[C@@H](Oc3ccc([C@H](C)NC(C)=O)cc3)C2)n1 [Example 8.106]
Sorting by IC50 in descending order, would 1 or 2 appear first? Returns: label corresponding to the selected item.
1
(1: 865 nM, 2: 160 nM)

I. CC(=O)N[C@@H](C)c1ccc(O[C@@H]2CCN(c3nc(N(C)C4CC4)ncc3Cl)C2)cc1 [Example 8.145]
II. CC(=O)N[C@@H](C)c1ccc(O[C@@H]2CCN(c3nc(N4C[C@@H]5C[C@H]4CO5)ncc3Cl)C2)cc1 [Example 8.146]
Which shows the larger IC50 value: I or II ? Pick one; state its label.
II
(II: 984 nM, I: 93 nM)

----------
# experimental.system: human ACC2 (Homo sapiens (Human), UniProt O00763)
# experiment.description: ACC2 assay (spectrophotometric 384 well assay, NADH-linked kinetic method)
# Assay type: biochemical
# test.settings: hACC2 construct lacking 128 N-terminal amino acids; coupled lactate dehydrogenase/pyruvate kinase reaction, 340 nm, 25° C.
measurement.type: IC50 (nM)

CC(=O)N[C@@H](C)c1ccc(O[C@@H]2CCN(c3ccnc(N4CCOC(C)C4)n3)C2)cc1 (stereo partly drawn)	212
CC(=O)N[C@@H](C)c1ccc(O[C@@H]2CCN(c3nc(N(C)C4CCOCC4)ncc3F)C2)cc1 [Example 8.157]	105
CCNC(=O)N[C@@H](C)c1ccc(OC2CCN(c3ncnc(OCC4CC4)c3F)C2)cc1 (stereo partly drawn)	120
CC(=O)N[C@@H](C)c1ccc(O[C@@H]2CCN(c3ncnc(OC4CCC4)c3Cl)C2)cc1	39
CC(=O)N[C@@H](C)c1ccc(O[C@@H]2CCN(c3ncnc(N4CCC(F)(F)C4)c3Cl)C2)cc1	80

A. CC(=O)N[C@@H](C)c1ccc(O[C@@H]2CCN(c3ncnc(N4C[C@@H]5C[C@H]4CO5)c3F)C2)cc1
B. CCN(C)c1ncc(Cl)c(N2CC[C@@H](Oc3ccc([C@H](C)NC(C)=O)cc3)C2)n1
Would you let me know which has the greater IC50 value, A or B ? Answer format: the label of the selected item.
A
(A: 2320 nM, B: 60 nM)

I. CC(=O)N[C@@H](C)c1ccc(O[C@@H]2CCN(c3ccnc(N4CCCOCC4)n3)C2)cc1
II. CC(=O)N[C@@H](C)c1ccc(O[C@@H]2CCN(c3ccnc(OC4CCC4)n3)C2)cc1
III. CC(=O)N[C@@H](C)c1ccc(O[C@@H]2CCN(c3nc(N4CCC(F)(F)CC4)ncc3F)C2)cc1
IV. CC(=O)N[C@@H](C)c1ccc(O[C@@H]2CCN(c3ccnc(N4CCCCC4)n3)C2)cc1
Form: Sort by [IC50] Order [ ascending ] Give me the labels in the order the question wants.
III, IV, I, II
(III: 96 nM, IV: 160 nM, I: 282 nM, II: 884 nM)

a. CC(=O)N[C@@H](C)c1ccc(O[C@@H]2CCN(c3nc(N(C)C4CCC4)ncc3Cl)C2)cc1
b. CC(=O)N[C@@H](C)c1ccc(O[C@@H]2CCN(c3ccnc(N4CC[C@H](F)C4)n3)C2)cc1 [Example 8.230]
a or b : whose IC50 is greater? Please identify the chosen entry by its label.
b
(b: 485 nM, a: 64 nM)

I. C[C@H](NC(=O)C1CC1)c1ccc(OC2CCN(c3ccnc(N4CCOCC4)n3)C2)cc1 (stereo partly drawn)
II. CC(=O)N[C@@H](C)c1ccc(O[C@@H]2CCN(c3ncnc(NCC4(O)CC4)c3Cl)C2)cc1
III. COc1c(OC(C)C)ncnc1N1CC[C@@H](Oc2ccc([C@H](C)NC(C)=O)cc2)C1
IV. C[C@H](NC(=O)N1CCC1)c1ccc(OC2CCN(c3ccnc(N4CCOCC4)n3)C2)cc1 (stereo partly drawn)
V. CC(=O)N[C@@H](C)c1ccc(O[C@@H]2CCN(c3ncnc(N(C)CC4CCOC4)c3F)C2)cc1 (stereo partly drawn)
Put the items in order so that reported IC50 rises from first to last. Form entry: labels listed in requested order.
III, II, I, V, IV
(III: 97 nM, II: 176 nM, I: 359 nM, V: 547 nM, IV: 1040 nM)

I. CC(=O)N[C@@H](C)c1ccc(O[C@@H]2CCN(c3nc(N4CCOC(C)C4)ncc3F)C2)cc1 (stereo partly drawn)
II. CCC(=O)N[C@@H](C)c1ccc(OC2CCN(c3ccnc(N(C)CC)n3)C2)cc1 (stereo partly drawn)
Field: lower recorded IC50 (choose I or II ) Answer with the label corresponding to your selection.
II
(II: 85 nM, I: 130 nM)

P. CC(=O)N[C@@H](C)c1ccc(O[C@@H]2CCN(c3ncnc(NC4CCCC4)c3F)C2)cc1
Q. COC[C@H]1CCCN1c1ncc(F)c(N2CC[C@@H](Oc3ccc([C@H](C)NC(C)=O)cc3)C2)n1
R. C[C@H](NC(=O)c1cn[nH]c1)c1ccc(OC2CCN(c3ccnc(N4CCOCC4)n3)C2)cc1 (stereo partly drawn)
S. CC(=O)N[C@@H](C)c1ccc(O[C@@H]2CCN(c3nc(N4CCCC4C)ncc3Cl)C2)cc1 (stereo partly drawn)
Order the records so the highest IC50 appears first and the lowest last. Answer by writing out the labels in the requested order.
Q, R, P, S

P. CC(=O)N[C@@H](C)c1ccc(O[C@@H]2CCN(c3nc(N4CCC(F)(F)C4)ncc3Cl)C2)cc1
Q. CC(=O)N[C@@H](C)c1ccc(O[C@@H]2CCN(c3ncnc(NCC4CC4)c3F)C2)cc1
R. CCCNc1ncc(Cl)c(N2CC[C@@H](Oc3ccc([C@H](C)NC(C)=O)cc3)C2)n1
Order the records, beginning with the lowest IC50 and ending with the highest. Rank them, then answer with their labels in that order.
Q, P, R

a. CC(=O)N[C@@H](C)c1ccc(O[C@@H]2CCN(c3ncnc(N4CCCC4C)c3F)C2)cc1 (stereo partly drawn)
b. CC(=O)N[C@@H](C)c1ccc(O[C@@H]2CCN(c3ccnc(N4CC=CC4)n3)C2)cc1
c. CC(=O)N[C@@H](C)c1ccc(O[C@@H]2CCN(c3ncc(C4CC4)cn3)C2)cc1
Put the compounds in ascending order of IC50. Answer with the labels in sequence, matching the requested order.
a, b, c
(a: 153 nM, b: 277 nM, c: 1910 nM)

----------
# experimental.system: human ACC2 (Homo sapiens (Human))
# experiment.description: ACC2 assay (spectrophotometric 384 well assay, NADH-linked kinetic method)
# Type: biochemical
# test.settings: hACC2 construct lacking 128 N-terminal amino acids; coupled lactate dehydrogenase/pyruvate kinase reaction, 340 nm, 25° C.
pIC50: −log10 of the molar value.
measurement.type: pIC50

Check out these entries, answers already filled in.
CC(=O)N[C@@H](C)c1ccc(O[C@@H]2CCN(c3ncnc(N(C)CCC#N)c3F)C2)cc1	6.17
CCN(C)c1ncc(C)c(N2CC[C@@H](Oc3ccc([C@H](C)NC(C)=O)cc3)C2)n1	6.34
CC(=O)N[C@@H](C)c1ccc(O[C@@H]2CCN(c3nc(N4CCC(C)(C)C4)ncc3Cl)C2)cc1	6.65
CC(=O)N[C@@H](C)c1ccc(O[C@@H]2CCN(c3nc(N4CCCOCC4)ncc3Cl)C2)cc1	6.74
CCN(CC)c1nccc(N2CC[C@@H](Oc3ccc([C@H](C)NC(C)=O)cc3)C2)n1	6.76

A. CCCOc1cc(N2CC[C@@H](Oc3ccc([C@H](C)NC(C)=O)cc3)C2)ncn1
B. C[C@H](NC(=O)N(C)C)c1ccc(O[C@H]2CCN(c3nc(N4CCC5(CC5)C4)ncc3F)C2)cc1
Please indicate which has the smaller reported pIC50: A , or B . Response format: the label of the selected entry.
A
(A: 6.19, B: 6.98)
